testProtocol: Metabolic stability in mouse liver microsomes
Assay type: in vitro ADME
conditionSummary: mouse liver microsomes, 1 h; read-out: MLM % Remaining at 1 h
experimentalReadout: remaining at 1 h

Using known records, supply remaining at 1 h for Cc1nn(CC(C)(O)C(=O)N2CCN(c3cccc4c3OCC(=O)N4)CC2)cc1-c1cccc(F)c1 (stereo not shown) < 5%

Indicate the recorded remaining at 1 h value for this molecule: Cc1nn(CC(C)(O)C(=O)N2CCN(c3cnc4cnccn34)CC2)cc1-c1cccc(F)c1 (stereo not shown) 8%

Could you please provide reported remaining at 1 h for Cc1nn(CC(C)(O)C(=O)N2CCN(c3cccc4c(=O)[nH]ccc34)CC2)cc1-c1cccc(F)c1 (stereo not shown) ? Thanks! < 5%

Name the recorded remaining at 1 h of the molecule listed here: Cc1nn(CC(C)(O)C(=O)N2CCN(c3c(F)ccc4cnccc34)CC2)cc1-c1cccc(F)c1 (stereo not shown) < 5%

Assign remaining at 1 h to the following record: Cc1nn(CC(C)(O)C(=O)N2CCN(c3c(C)sc4cnccc34)CC2)cc1-c1cccc(F)c1 (stereo not shown) < 5%

Look up remaining at 1 h of Cc1nn(CC(C)(O)C(=O)N2CCN(c3ccc4c(cnn4Cc4ccccc4)c3)CC2)cc1-c1cccc(F)c1 (stereo not shown) and report it. 30%

Please give measured remaining at 1 h of the following entry: Cc1nn(CC(C)(O)C(=O)N2CCN(c3cccc4[nH]ncc34)CC2)cc1-c1cccc(F)c1 (stereo not shown) < 5%

From: paper PMC7918612
